- TGT: T1, EDIII-DV3 (E protein domain III of dengue virus serotype DV-3) (dengue virus serotype DV-3, UniProt P27915 571-678)
- T1 construct: also called DENV-3; EDIII of DV-3
Assign Kd to each entry below.
Report only the number, with the unit nM understood.

Query: Kd; subject: antibody A48 (antibody, V domains shown) VH: QVQLVQSGAEVKKPGASVKVSCKASGFNIKDTYMSWVRQAPEQGLEWMGRIDPENGDTKYDPKLQGRVTMTADTSTNTAYMELRSLRSDDTAVYYCARGWEGFAYWGQGTLVTVSS VL: DIVMTQSPASLAVSLGERATISCRASENVDKYGNSFMHWYQQKPGQPPKLLIYRASELQWGVPDRFSGSGSGTDFTLTISSLQAEDVAVYYCQRSNEVPWTFGQGTKLEIK
5.8

Query: Kd; subject: antibody B11 (antibody, V domains shown) VH: VKLLEQSGAELVKPGASVRLSCTAGFNIKDTYMSWVKQRPEQGLEWIGRIDPENGDTKYDPKFQGKATITADTSSNTAYLHLSSLTSGDTAVYYCSRGWEGFAYWGQGTLVTVSA VL: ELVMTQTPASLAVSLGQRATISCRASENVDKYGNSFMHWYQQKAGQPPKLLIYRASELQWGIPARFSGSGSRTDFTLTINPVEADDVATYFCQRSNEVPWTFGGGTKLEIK
2.98

Query: Kd; subject: antibody B48+A98V (antibody, V domains shown) VH: QVQLVQSGAEVKKPGASVKVSCKAGFNIKDTYMSWVRQAPEQGLEWMGRIDPENGDTKYDPKLQGRVTMTADTSTNTAYMELRSLRSDDTAVYYCVRGWEGFAYWGQGTLVTVSS VL: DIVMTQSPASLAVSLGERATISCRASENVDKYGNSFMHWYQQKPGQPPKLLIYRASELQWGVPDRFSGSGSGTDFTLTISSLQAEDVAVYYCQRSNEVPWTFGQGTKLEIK
5.06
